The values you see were collected from the RNAGym collection of RNA variant scans (doi:10.7554/elife.80360).

B1: HDV Ribozyme (parent)
chain: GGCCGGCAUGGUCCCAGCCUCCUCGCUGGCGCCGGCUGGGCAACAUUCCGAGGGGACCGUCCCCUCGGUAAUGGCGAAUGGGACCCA

Variants of: B1
PROCEDURE_TEXT: self-cleavage, relative activity (ratio to wild type); higher = more cleavage; co-transcriptional
ENDPOINT: self-cleavage
# print the numeric value only

C75A A77G: 0.0875
G6U C85U: 0.646
G6A G35A: 0.302
G54A: 0.961
A16U C66U: 1.05

So, U60G G76C ? Its self-cleavage was 1.09

Reported self-cleavage for U20C U37G was 0.185

Record G31U C41A . Reported self-cleavage: 0.136
